This collection of values is drawn from ChEMBL document CHEMBL1128515.

- Organism: Rattus norvegicus
- protocol-summary: Tested for the vasorelaxant potency in methoxamine contracted rat aorta
- Format: functional
pIC50: −log10 of the molar value.
Would you please tag the item Condition met when its pIC50 is 6 or above, and Condition not met when it is below?

Hello, I need to know if `CC1(C)Oc2ccc(C#N)cc2[C@@H](/N=C(\NC#N)Nc2ccc(Cl)c(F)c2)[C@@H]1O` has measured pIC50 not below 6. Thanks!
Condition not met

Hello, I need to know if `CC1(C)Oc2ccc(C#N)cc2[C@@H](/N=C(\NC#N)Oc2ccccc2)[C@@H]1O` has measured pIC50 not below 6. Thanks!
Condition not met

Hello, I need to know if `CC(=O)c1ccc(N/C(=N/[C@@H]2c3cc(C#N)ccc3OC(C)(C)[C@H]2O)NC#N)cc1` has measured pIC50 not below 6. Thanks!
Condition not met

Hello, I need to know if `CC1(C)Oc2ccc(C#N)cc2[C@@H](NC(=O)NCc2ccccc2)[C@@H]1O` has measured pIC50 not below 6. Thanks!
Condition not met

Hello, I need to know if `CC1(C)Oc2ccc(C#N)cc2[C@@H](N2CCN(c3ccccc3)C2=O)[C@@H]1O` has measured pIC50 not below 6. Thanks!
Condition not met

Hello, I need to know if `CC1(C)Oc2ccc(C#N)cc2[C@@H](/N=C(\NC#N)Nc2cccc(C(=O)O)c2)[C@@H]1O` has measured pIC50 not below 6. Thanks!
Condition not met

Hello, I need to know if `CC1(C)Oc2ccc(C#N)cc2[C@@H](NC(=O)Nc2cccnc2)[C@@H]1O` has measured pIC50 not below 6. Thanks!
Condition met

Hello, I need to know if `CC1(C)Oc2ccc(C#N)cc2[C@@H](/N=C(\NC#N)Nc2ccc(C(=O)O)cc2)[C@@H]1O` has measured pIC50 not below 6. Thanks!
Condition not met

Hello, I need to know if `CC1(C)Oc2ccc(C#N)cc2[C@@H](NC(=O)Nc2ccccn2)[C@@H]1O` has measured pIC50 not below 6. Thanks!
Condition met
